# System: K4 kissing-loop RNA reporter
# Test details: apparent KD of K4 kissing-loop reporter; higher = weaker reporter binding
# Condition context: Eterna round: R107; input ligand: arginine 13.2 mM
Items are presented alongside their recorded apparent KD of K4 kissing-loop reporter.
Measurement kind: apparent KD of K4 kissing-loop reporter (µM)

Chain | Measurement kind | Endpoint value
CUAUGGAAACAUAGUAAUCGGGAAACCGAUACCAGUAUGGAAACAUACCCUUGGCAGCGGAAUGAUUAAACGGAGUGAUGUUCCG [Theophylline A K4 17] | apparent KD of K4 kissing-loop reporter | 0.243
AAGCCAGUGAUGUUGGCAAAAUAAACUGAAGGAGCGCGUGAAAACGCAGGUAGGUCGCAGAACCUUGCCAACUAACACGAAAGUG [Ex Arginine A K4 19] | apparent KD of K4 kissing-loop reporter | 0.246
UGAUUGCCAGUGAUGUUGGCAGGGUCUGAAGGAGCGCGUGAAAACGCAGGUAGGUCGCAGUAUGGUGCCAAUUGAUCGAAAGAUC [KL-XArg-A3] | apparent KD of K4 kissing-loop reporter | 0.186
UAAUUUAUUUCUUUUAUAUAAUAAUCAGAUACCAGUGAUUAAUGUCACCCUUGGCAGCUGUAUAGAGUGAUGUUCUAAUGCUUAA [JR_SSTheophyA_Sub022] | apparent KD of K4 kissing-loop reporter | 0.169
AACUCUCAGACACUUGAGUGAUGUUCGGGCCGAGGACCGGUACGGCCGCCACUCGGGUCUGAGAGAGGUUAUCAAAGAUAGCCAA [Omei KL Tryp A SS A v9] | apparent KD of K4 kissing-loop reporter | 0.0873
ACGUGCACCAGUGAUGUUGGAAAAUAUGAAGGAGCGGGAGAAAACCCAGGUAGGUCGCAUAAUAGCACGAGCCACGAAAGUGGCA | apparent KD of K4 kissing-loop reporter | 0.0814

====

Items are presented alongside their recorded apparent KD of MS2 coat protein.
# Test system: MS2 coat protein
# Test details: apparent KD of MS2 coat protein; higher = weaker reporter binding
# Condition context: Eterna round: R107; input ligand: theophylline 2 mM
Measurement kind: apparent KD of MS2 coat protein (µM)

Chain | Target or system | Measurement kind | Endpoint value
AUACAUGAGGAUCACCCAUGUCAUUCAGAAGGAGCGUCAUUUUAGACAGGUAGGUCGCUGUUAUUUUUAUUAUUCUUUAUGUUUU [JR_Nu_ExcArginiA_Sub025] | MS2 coat protein | apparent KD of MS2 coat protein | 0.0213
AGUCUUAAAGGAAGGAGCGCAGUCAUAACAUGAGGAUCACCCAUGUCGAGGUGAGGGUCAUUGCAGGUAGGUCGCCUUACUAAGA [Same State - Arginine B (Freestyle 6)] | MS2 coat protein | apparent KD of MS2 coat protein | 0.133
GGAGUCGUCACGGCCGCCACUGCGGUGGUGUGACAUGAGGAUCACCCAUGUUGUCAUGCGGCCCUUAGGACCGGGUGUCGGUUCC [#1 Exclusion - Tryptophan B Attempt #23 (HarryS)] | MS2 coat protein | apparent KD of MS2 coat protein | 0.0783

====

# Test system: K4 kissing-loop RNA reporter;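 note: bound reporter read as fluorescence of individual clusters on recovered sequencing chips by microscopy, with normalized cluster intensities fitted with a binding model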
# Test details: apparent KD of K4 kissing-loop reporter; higher = weaker reporter binding
# Condition context: Eterna round: R107; input ligand: theophylline 20 uM
Lab note: compare apparent KD of K4 kissing-loop reporter against 0.3 µM. Equal or greater, write y. Smaller, write n.

Chain | Group label
ACGCGCGCGAGUGAUGUUCGGAGCGGCUGGCAGGAUAUGUAGCAAUGCAGAAGGGUCGUGGCUGCUGGUAGGAAACUACUGGCAG [#2 Exclusion - FMN A Attempt #4 (HarryS)] | y
CCGUGGAGUGAUGUUCCACGUACUACGGAUACCAGCUUUGCCAAAGGCCCUUGGCAGCCGCACGGCUCAGUGAUGUUGGGUCGCG [Same State Theophylline A G10] | n
GCGGUGUUAUGCCCGAGGGUAUAGUUGCCAAAGGAUAUGAUUGUUGUCAGAAGGUUGCGCUUGAUCAGUGAUGUUGGUCUCCAAC [theeternabot_sameState_KL_FMN_A_12] | y
AGACCUCAGUGAUGUUGAGGUAACACUGAUACCAGCGACUUGAUUCGCCCUUGGCAGCAGUCCACCGAGGUAUCUGAUCAGGUCA [#25 K4 Theophylline A Exclusion] | n
CCUUUCAGUUACGAUACCAGUCUAAUAUAUUUGAUCAAUACCCUCGCCGAGUGAUGUUCGGACCCUUGGCAGCGUCUGGGACAGG [gbbymullin] | y
UUAGGAGUGGGAGGAUAUCCUAAUGUGGGUGAUGUUAGCGAUGUUGAAAGUGUAGUGAUGUUGUGCGGAGAAGGUCCAGUGUUGA [BDazzled - #12 - Exc. FMN B] | n
UUAUACUCAUGUAAAGAACUAGUAACCGAAGGAGCGACAUAAAAGUCAGGUAGGUCGCGGAUUUCUCAGUGAUGUUGAGAGCAUU [JR_SSArginiA_Sub012] | n
GCAGUGAUGUUGCUGGUGUGCAGUGGUAGUCGAGGACCGGUACGGCCGCCACUCGGUGAGAACCUGCUAAUACAUCGAUAAGUGA [XVIII] | y
AGCAGUCAACUCGAAACCAUCGAAGAUGGUCGAGGACCGGUACGGCCGCCACUCGGAGUGAUGUUCCGAAGACUGCAAAAUAAAA [#SwitchBubble 14] | y
UAAUCCUAGUGAUAAUAAUCAAGUGGUGGGCGAGGACCGGUACGGCCGCCACUCGAAUAUGCAGUGAUGUUGUAAUCCGGAUAAU [Exclusion - Tryptophan A (Freestyle 6)] | y
AAAGACUGACUGCAAUUAGCAGUCAGUCAACGAGGACCGGUACGGCCGCCACUCGGGUCCUAGAGUGAUGUUCUAAUAAUAUAAU [Default title] | y

====

# System: MS2 coat protein
# Test details: apparent KD of MS2 coat protein, switch ON state; designed switch direction (-1 OFF switch, 1 ON switch): 1; higher = weaker reporter binding
# Condition context: FMN input: 0 or 200 uM; Eterna round: R93 (includes R88 designs)
Lab note: compare apparent KD of MS2 coat protein against 0.03 µM. Equal or greater, write True. Smaller, write False.

Chain | Group label
AAAACACAUGAGGAUCACCCAUGUAAAAACAUGAGAGGAUAUGCUUGGAAAACAUGCUAUGCAGAAGGCUCAAGUG [SS1 - 9] | False
CCUAGGAAGAGAGAGGAUAUCCAAAGGAAAACAUGAGGAUCACCCAUGUAAAAGGUAGGAAAUUGGGAGAAGGCUCAAGAGAGAG [salish99-ss2-088] | False
AAAAAACAUGAGGAUCACCCAUGUCUUUUGACAUGAGGAUAUGUACAGACUUCGGUCUGUACAGAAGGCAUAAAAA [SS1 - 1030] | True
CGGCAAGAGAGAGAGGAUAUCCAAAGGAAAACAUGAGGAUCACCCAUGUAGAAGGUAGGAAAUUGGGAGAAGGCUCAAGAGAGAG [salish99-ss2-135] | False
CGGAGACAUGAGGAUCACCCAUGUGAGAAGAGGCGAGGAUAUCGAAAGAAAGAAGAGAAACGAGAAGGCGCGAGUC [salish99-SS1-078] | False
AGUAAACAUGAGGAUCACCCAUGUGGUGGCCCAUGAGGAUAUCCAUGCGCAAUGCGCAUAGGAGAAGGCAUAGCCA [Enenerla] | True
AUAAAACAUGAGGAUCACCCAUGUAGAAAUAUGGGAGGAUAUACAAGGACGAAAGUCAAGGUAGAAGGCCUAAAAG [Mat - Same State 1 - Meechl mod - D119] | False
GAAAAACAUGAGGAUCACCCAUGUAGAAAUAUGGGAGGAUAUACAAAGACGAAAGUCAAAGUAGAAGGCCUGAAGA [Mat - Same State 1 - JL mod - D91] | False
AAAUAAAUGACUAAGGAUAUUUCAGAGAAAACAUGAGGAUCACCCAUGUAAUAAUAAAAAGGGUGAAAGAAGGUAGUCAACAAAC [74%, More Paria 4] | False
GACAAACAUGAGGAUCACCCAUGUAGAAAUAUGGGAGGAUAUACACAGACGAAAGUCAAAGUAGAAGGCCUAAAAG [77%, Mat - Mod of Eli - With 2 more C's] | False
AUAAAAGAAAGGCAGGAUAUCCAAAGAAAAACAUGAGGAUCACCCAUGUAAAGAAAGAAAAAGUGGGAGAAGGGCCAAAAGAAUA [73%, More Fisker Same State 2, D3, 3] | False
AGUCAACAUGAGGAUCACCCAUGUCUGAGGGCAUGAGGAUAUCUAGAUGGGCAGCAUGAUAGAGAAGGCAUGCGCC [Betea] | True

====

# Test system: MS2 coat protein
# Test details: apparent KD of MS2 coat protein, switch OFF state (with FMN for OFF switches, without FMN for ON switches); designed switch direction (-1 OFF switch, 1 ON switch): 1; higher = weaker reporter binding
# Condition context: FMN input: 0 or 200 uM; Eterna round: R93 (includes R88 designs)

Chain | Unit info | apparent KD of MS2 coat protein
GAAAAACAUGAGGAUCACCCAUGUGGAAAUAUGGGAGGAUAUACGAAGACGAAAGUCAAAGUAGAAGGCCUAAAAG [Same State 1.4c (Mat - Mod of Eli - )] | µM | 0.0838
AUAUAUAUAAGGUAGGAUAUUCUAAAGUAAACAUGAGGAUCACCCAUGUAAAGAAAGAAACUCAUGGAGAAGGACCAUAUAUAUA [Modifying Tesla's highscorer (77%) - Adding G segment] | µM | 0.0848
CGGAAAGAGAGAGAGGAUAUCCAAAGGAAAACAUGAGGAUCACCCAUGUAGAAGGUAGGAAAUUGGGAGAAGGCUCAAGAGAGAG [salish99-ss2-132] | µM | 0.0267
CCGAGGAAGAGAGAGGAUAUCCAAAGGAAAACAUGAGGAUCACCCAUGUAAAAGGUAGGAAAUUGGGAGAAGGCUCAAGAGAGAG [salish99-ss2-072] | µM | 0.0471
AAAACACAUGAGGAUCACCCAUGUAGAAAUAUGGGAGGAUAUACGAAAACGAAAGUCAAAGUAGAAGGCCUAAAAG [saturn 3] | µM | 0.079
GAGCCGCGGGCACAGGAUAUGCUCGGGCAAACAUGAGGAUCACCCAUGUGCGGCCUAAAUACGACGCAGAAGGGUGCUUGUGUGU [Lausisan] | µM | 0.102
